- System: HIF-PH2 (Homo sapiens, UniProt Q9GZT9)
- Construct: made in house; host or cells: insect Hi5 cells
- Sequence (Q9GZT9 whole entry, species assumed): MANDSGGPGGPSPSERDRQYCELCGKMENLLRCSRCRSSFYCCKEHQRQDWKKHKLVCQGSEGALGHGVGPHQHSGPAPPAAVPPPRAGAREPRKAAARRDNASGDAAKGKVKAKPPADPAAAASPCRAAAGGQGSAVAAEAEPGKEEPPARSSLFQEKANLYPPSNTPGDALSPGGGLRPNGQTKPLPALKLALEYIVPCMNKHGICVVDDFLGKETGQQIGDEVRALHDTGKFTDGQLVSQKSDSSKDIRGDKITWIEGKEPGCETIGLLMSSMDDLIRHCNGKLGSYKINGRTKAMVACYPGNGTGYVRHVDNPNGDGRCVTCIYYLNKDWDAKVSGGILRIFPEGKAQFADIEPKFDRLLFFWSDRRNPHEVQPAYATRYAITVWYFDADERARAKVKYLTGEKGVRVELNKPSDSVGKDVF
- Assay Text: HIF-PH assay (14CO2 capture, peptide-dependent turnover)
- Assay type: biochemical
- Protocol Conditions: compound concentration 200 μM
Measure Name: inhibition at 200 µM (%)
Give bare numbers, in %.

>  <Entry Smiles>
Cc1nc(C(=O)NCC(=O)O)c(O)c2c(-c3ccccc3F)nsc12

>  <Value Measured>
100

$$$$
>  <Entry Smiles>
Cc1nsc2c(-c3ccccc3)nc(C(=O)NCC(=O)O)c(O)c12

>  <Value Measured>
100

$$$$
>  <Entry Smiles>
C#Cc1nc(C(=O)NCC(=O)O)c(O)c2c(-c3ccc(Cl)cc3)nsc12

>  <Value Measured>
100

$$$$
>  <Entry Smiles>
COc1ccc(-c2nc(C(=O)NCC(=O)O)c(O)c3c(-c4ccc(Cl)cc4)nsc23)cn1

>  <Value Measured>
77

$$$$
>  <Entry Smiles>
Cc1nsc2c(O)c(C(=O)NCC(=O)O)nc(C)c12

>  <Value Measured>
100

$$$$
>  <Entry Smiles>
C[C@H](NC(=O)c1ncc2snc(-c3ccc(Cl)cc3)c2c1O)C(=O)O

>  <Value Measured>
100

$$$$

// for each compound in input: emit inhibition at 200 µM
1. Cc1nsc2c(O)c(C(=O)NCC(=O)O)ncc12
2. O=C(O)CNC(=O)c1nc(-c2ccncc2)c2snc(-c3ccccc3)c2c1O
3. COc1ccc(-c2nc(C(=O)NCC(=O)O)c(O)c3c(-c4ccccc4)nsc23)cc1
4. O=C(O)CNC(=O)c1nc(-c2ccccn2)c2snc(-c3ccccc3)c2c1O
5. CC(=O)c1nc(C(=O)NCC(=O)O)c(O)c2c(-c3ccc(Cl)cc3)nsc12

Output line:
[100, 97.1, 97.9, 99.1, 100]

// input: 5 compounds below; output: inhibition at 200 µM for each
1. O=C(O)CNC(=O)c1nc(-c2ccccc2)c2snc(-c3ccccc3F)c2c1O
2. O=C(O)CNC(=O)c1nc(Br)c2snc(-c3ccc(F)cc3)c2c1O
3. Cc1nc(C(=O)NCC(=O)O)c(O)c2c(C)nsc12
4. COc1ccc(-c2nc(C(=O)NCC(=O)O)c(O)c3c(-c4ccc(Cl)cc4)nsc23)cc1
5. CCc1nc(C(=O)NCC(=O)O)c(O)c2snc(C)c12

Output line:
100
100
100
94.5
99

Provide reported inhibition at 200 µM for each item, in the same order as listed.
1. O=C(O)CNC(=O)c1nc(Br)c2c(-c3ccccc3)nsc2c1O
2. Cc1nc(C(=O)NCC(=O)O)c(O)c2c(-c3ccc(F)cc3)nsc12
3. C[C@@H](NC(=O)c1ncc2snc(-c3ccc(Cl)cc3)c2c1O)C(=O)O
4. COc1cccc(-c2nc(C(=O)NCC(=O)O)c(O)c3c(-c4ccc(Cl)cc4)nsc23)c1
5. Cc1nsc2c(-c3ccccn3)nc(C(=O)NCC(=O)O)c(O)c12
6. O=C(O)CNC(=O)c1nc(C(F)(F)F)c2snc(-c3ccc(Cl)cc3)c2c1O
7. Cc1nsc2c(-c3cccnc3)nc(C(=O)NCC(=O)O)c(O)c12
8. CCc1nc(C(=O)NCC(=O)O)c(O)c2c(C)nsc12

Output line:
98
97.4
54
88.9
74
100
100
99

Hey, can you go through the list below and give me inhibition at 200 µM for every item?
1. O=C(O)CNC(=O)c1ncc2snc(-c3ccc(Cl)cc3)c2c1O
2. C#Cc1nc(C(=O)NCC(=O)O)c(O)c2c(C)nsc12

Output line:
1: 99.9; 2: 100
